- SYSTEM_UNDER_TEST: His6-CRBN/DDB1 (Homo sapiens)
- Sequence (Q96SW2 whole entry): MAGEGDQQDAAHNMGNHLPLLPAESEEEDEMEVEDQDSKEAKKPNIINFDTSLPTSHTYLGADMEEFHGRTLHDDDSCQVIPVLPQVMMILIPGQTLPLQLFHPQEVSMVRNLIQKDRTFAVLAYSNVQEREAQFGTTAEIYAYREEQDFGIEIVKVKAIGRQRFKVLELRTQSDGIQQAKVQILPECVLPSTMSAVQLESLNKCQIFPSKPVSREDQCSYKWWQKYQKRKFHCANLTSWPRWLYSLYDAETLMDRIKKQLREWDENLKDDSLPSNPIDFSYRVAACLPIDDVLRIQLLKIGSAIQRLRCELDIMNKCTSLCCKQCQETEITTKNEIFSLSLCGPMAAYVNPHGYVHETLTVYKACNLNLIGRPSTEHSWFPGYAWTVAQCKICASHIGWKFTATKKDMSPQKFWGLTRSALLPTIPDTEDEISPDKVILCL
- Sequence (Q16531 whole entry partner): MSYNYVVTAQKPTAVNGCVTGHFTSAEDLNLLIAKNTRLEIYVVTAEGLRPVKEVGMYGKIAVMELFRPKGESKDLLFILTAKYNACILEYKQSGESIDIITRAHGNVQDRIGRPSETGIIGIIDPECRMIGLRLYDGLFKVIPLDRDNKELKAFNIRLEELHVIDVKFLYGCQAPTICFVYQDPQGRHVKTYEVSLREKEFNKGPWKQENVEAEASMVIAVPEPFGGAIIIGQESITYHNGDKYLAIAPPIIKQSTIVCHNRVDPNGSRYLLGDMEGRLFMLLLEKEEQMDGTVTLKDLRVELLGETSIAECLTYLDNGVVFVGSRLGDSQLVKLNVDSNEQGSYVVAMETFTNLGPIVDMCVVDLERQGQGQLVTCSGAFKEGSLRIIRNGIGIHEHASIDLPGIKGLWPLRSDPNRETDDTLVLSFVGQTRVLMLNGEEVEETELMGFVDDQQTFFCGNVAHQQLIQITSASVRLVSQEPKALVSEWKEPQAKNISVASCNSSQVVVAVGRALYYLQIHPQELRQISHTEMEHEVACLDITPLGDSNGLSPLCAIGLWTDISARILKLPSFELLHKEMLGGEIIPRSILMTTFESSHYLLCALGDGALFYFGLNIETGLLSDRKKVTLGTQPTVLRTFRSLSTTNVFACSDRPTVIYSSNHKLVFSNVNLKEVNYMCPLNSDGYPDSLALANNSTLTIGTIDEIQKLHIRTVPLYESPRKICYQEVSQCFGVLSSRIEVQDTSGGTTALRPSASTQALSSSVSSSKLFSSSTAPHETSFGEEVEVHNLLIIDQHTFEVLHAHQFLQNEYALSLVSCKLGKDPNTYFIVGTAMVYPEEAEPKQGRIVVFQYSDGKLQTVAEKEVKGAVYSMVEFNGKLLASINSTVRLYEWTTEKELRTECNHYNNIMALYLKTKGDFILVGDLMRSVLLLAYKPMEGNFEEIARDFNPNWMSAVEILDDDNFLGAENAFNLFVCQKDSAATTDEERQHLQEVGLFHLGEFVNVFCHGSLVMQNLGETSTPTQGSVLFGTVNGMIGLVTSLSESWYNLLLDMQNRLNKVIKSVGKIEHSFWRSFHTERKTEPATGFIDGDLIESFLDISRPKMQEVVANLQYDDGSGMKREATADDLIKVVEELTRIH
- ASSAY_REMARKS: TR-FRET ligand displacement assay (Thal-FITC tracer) with His6-CRBN/DDB1
- TEST_PARAMETERS: pKD (M), Protein CRBN; from IC50 with Correction Factor 1.43
Residues, ends and D or L forms follow the SMILES beside them. *: point of attachment. Fmoc = O=C(OCC1c2ccccc2-c2ccccc21)*; X1 = O=C1C[C@@H](N*)C(=O)N1
PROPERTY: Kd

Hello, please tell me recorded Kd for this one: O=C(CNC(=O)CNC(=O)OCC1c2ccccc2-c2ccccc21)NCC(=O)N[C@@H](Cc1ccccc1)C(=O)N[C@@H]1CC(=O)NC1=O [Fmoc-GGGFepicN] (Fmoc-GGGF-X1) 2.88e-06 M
